# assay_target: ROCK-II(h) (Homo sapiens, UniProt O75116)
# Sequence (O75116 whole entry): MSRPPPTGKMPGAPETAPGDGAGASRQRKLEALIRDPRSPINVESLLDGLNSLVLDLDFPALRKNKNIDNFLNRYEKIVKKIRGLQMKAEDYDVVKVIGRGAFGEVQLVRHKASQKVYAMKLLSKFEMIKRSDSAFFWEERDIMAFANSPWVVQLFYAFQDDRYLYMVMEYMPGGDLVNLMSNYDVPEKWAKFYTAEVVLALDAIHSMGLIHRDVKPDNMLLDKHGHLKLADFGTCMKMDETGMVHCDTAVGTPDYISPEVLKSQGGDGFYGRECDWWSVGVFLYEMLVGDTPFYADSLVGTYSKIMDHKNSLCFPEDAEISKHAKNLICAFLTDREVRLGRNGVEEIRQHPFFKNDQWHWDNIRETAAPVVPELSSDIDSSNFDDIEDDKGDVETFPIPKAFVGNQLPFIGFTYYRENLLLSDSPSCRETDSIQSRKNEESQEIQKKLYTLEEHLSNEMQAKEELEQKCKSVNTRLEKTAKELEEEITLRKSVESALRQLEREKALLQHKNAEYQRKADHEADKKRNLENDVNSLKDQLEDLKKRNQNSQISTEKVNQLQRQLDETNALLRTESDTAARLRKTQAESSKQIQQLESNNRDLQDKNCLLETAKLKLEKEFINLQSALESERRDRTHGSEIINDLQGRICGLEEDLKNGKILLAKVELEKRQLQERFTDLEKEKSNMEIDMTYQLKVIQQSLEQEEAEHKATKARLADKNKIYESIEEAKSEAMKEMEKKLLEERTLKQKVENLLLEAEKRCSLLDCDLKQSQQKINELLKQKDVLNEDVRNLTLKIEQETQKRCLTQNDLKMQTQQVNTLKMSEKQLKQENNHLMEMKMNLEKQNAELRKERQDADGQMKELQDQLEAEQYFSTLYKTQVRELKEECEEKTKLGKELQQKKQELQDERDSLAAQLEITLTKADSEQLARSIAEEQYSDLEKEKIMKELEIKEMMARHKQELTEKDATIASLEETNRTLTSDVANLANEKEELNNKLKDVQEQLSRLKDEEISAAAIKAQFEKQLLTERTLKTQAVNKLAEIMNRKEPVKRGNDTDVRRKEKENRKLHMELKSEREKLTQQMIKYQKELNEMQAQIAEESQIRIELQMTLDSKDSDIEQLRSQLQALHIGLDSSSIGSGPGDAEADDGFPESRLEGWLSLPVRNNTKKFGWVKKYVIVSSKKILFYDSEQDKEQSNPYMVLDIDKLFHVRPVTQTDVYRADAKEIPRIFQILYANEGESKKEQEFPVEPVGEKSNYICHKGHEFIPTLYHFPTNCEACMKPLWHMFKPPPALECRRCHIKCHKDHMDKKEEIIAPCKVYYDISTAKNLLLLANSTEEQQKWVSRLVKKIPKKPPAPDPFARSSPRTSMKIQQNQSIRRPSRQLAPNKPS
# protocol: Kinase Profiling Assay
# Assay type: biochemical
# settings: 100 μM
quantity_kind: % activity (%)
Kindly provide the numeric value in % only, without the unit symbol.

Solved cases (3 shown):
>>> reported_value("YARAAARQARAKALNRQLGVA [MMI-0200]")
85
>>> reported_value("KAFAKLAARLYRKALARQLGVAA [MMI-0400]")
77
>>> reported_value("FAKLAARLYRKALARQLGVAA [MMI-0300]")
74

Next up:
*Q* Please report the recorded % activity for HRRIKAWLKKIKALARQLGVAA [MMI-0500] .
*A* 2
